Test system: SNB-75 CNS
measurement.description: NCI tumour cell line growth inhibition, 384-well format

{"columns": ["molecule", "GI50"],
 "data": [
  ["Cn1cc(-c2ccc3nnc(Sc4ccc5ncccc5c4)n3n2)cn1", "> 100 µM"],
  ["C=CC(=O)Nc1cc(N2CCN(CC)CC2)ccc1Nc1cc(N(C)C(=O)Nc2c(Cl)c(OC)cc(OC)c2Cl)ncn1", "1.98 µM"],
  ["CCN(c1cc(-c2ccc(CN3CCOCC3)cc2)cc(C(=O)NCc2c(C)cc(C)[nH]c2=O)c1C)C1CCOCC1", "> 100 µM"],
  ["O=C1CCC(N2C(=O)c3ccccc3C2=O)C(=O)N1 (centres undefined)", "> 100 µM"]
]}

---

Listed next: entries and their corresponding GI50.
Tested on: MOLT-4 leukemia
measurement.description: NCI tumour cell line growth inhibition, 384-well format

{"columns": ["molecule", "GI50"],
 "data": [
  ["O=P1(S)OC[C@H]2O[C@@H]3[C@H](F)[C@@H]2OP(O)(=S)OC[C@H]2O[C@H]([C@H](F)[C@@H]2O1)n1cnc2c(ncnc21)NC/C=C/CNc1ncnc2c1ncn23 (stereo not given in full)", "5.67 µM"],
  ["C=CC(=O)Nc1cc(N2CCN(CC)CC2)ccc1Nc1cc(N(C)C(=O)Nc2c(Cl)c(OC)cc(OC)c2Cl)ncn1", "0.91 µM"],
  ["CCN(c1cc(-c2ccc(CN3CCOCC3)cc2)cc(C(=O)NCc2c(C)cc(C)[nH]c2=O)c1C)C1CCOCC1", "68.4 µM"],
  ["Cn1cc(-c2ccc3nnc(Sc4ccc5ncccc5c4)n3n2)cn1", "> 100 µM"],
  ["O=C1CCC(N2C(=O)c3ccccc3C2=O)C(=O)N1 (stereo not given)", "> 100 µM"]
]}

Data provenance: PubChem BioAssay (NCI)
